settings: in water, 330.05 K
quantity.measured: solubility (mole fraction)

- smiles.record: "CCCCC[n+]1csc2ccccc21.F[P-](F)(F)(F)(F)F"
  quantity.measured: "solubility (mole fraction)"
  val: 0.000205

* * *

conditions: in furfural, 273.3 K

- smiles.record: "CCCC[n+]1csc2ccccc21.F[P-](F)(F)(F)(F)F"
  solubility (mole fraction): 0.155

* * *

conditions: in water, 363.15 K
Entries and their measured solubility (mole fraction) follow.

- smiles.record: "CCCCCCCC[n+]1csc2ccccc21.F[P-](F)(F)(F)(F)F"
  solubility (mole fraction): 0.000261
- smiles.record: "CCCCC[n+]1csc2ccccc21.F[P-](F)(F)(F)(F)F"
  solubility (mole fraction): 0.000878

* * *

# solubility (mole fraction) per record follows
conditions: in water, 333.15 K

- smiles.record: "CCCCCCCC[n+]1csc2ccccc21.F[P-](F)(F)(F)(F)F"
  solubility (mole fraction): 0.000142
- smiles.record: "CCCCCCC[n+]1csc2ccccc21.F[P-](F)(F)(F)(F)F"
  solubility (mole fraction): 0.000186
- smiles.record: "CCCCC[n+]1csc2ccccc21.F[P-](F)(F)(F)(F)F"
  solubility (mole fraction): 0.000226

* * *

details: in water, 328.15 K

- smiles.record: "CCCCCCCC[n+]1csc2ccccc21.F[P-](F)(F)(F)(F)F"
  solubility (mole fraction): 0.000128
- smiles.record: "CCCCCC[n+]1csc2ccccc21.F[P-](F)(F)(F)(F)F"
  solubility (mole fraction): 0.00021
- smiles.record: "CCCCCCC[n+]1csc2ccccc21.F[P-](F)(F)(F)(F)F"
  solubility (mole fraction): 0.000155
- smiles.record: "CCCCC[n+]1csc2ccccc21.F[P-](F)(F)(F)(F)F"
  solubility (mole fraction): 0.000189

* * *

details: in furfural, 331.25 K
quantity.measured: solubility (mole fraction)

- smiles.record: "CCCC[n+]1csc2ccccc21.F[P-](F)(F)(F)(F)F"
  val: 0.393

* * *

conditions: in water, 352.75 K

- smiles.record: "CCCCCCCC[n+]1csc2ccccc21.F[P-](F)(F)(F)(F)F"
  solubility (mole fraction): 0.000212

* * *

details: in furfural, 273.25 K

- smiles.record: "CCCCCC[n+]1csc2ccccc21.F[P-](F)(F)(F)(F)F"
  solubility (mole fraction): 0.201

* * *

conditions: in water, 358.15 K
quantity.measured: solubility (mole fraction)

- smiles.record: "CCCCCCC[n+]1csc2ccccc21.F[P-](F)(F)(F)(F)F"
  quantity.measured: "solubility (mole fraction)"
  val: 0.00041

* * *

conditions: in water, 348 K

- smiles.record: "CCCC[n+]1csc2ccccc21.F[P-](F)(F)(F)(F)F"
  solubility (mole fraction): 0.001

* * *

conditions: in water, 288.15 K

- smiles.record: "CCCCCCC[n+]1csc2ccccc21.F[P-](F)(F)(F)(F)F"
  solubility (mole fraction): "3.5e-05"

* * *

conditions: in water, 313.15 K
Let's look at some molecules and their measured solubility (mole fraction).

- smiles.record: "CCCCCC[n+]1csc2ccccc21.F[P-](F)(F)(F)(F)F"
  solubility (mole fraction): 0.000109
- smiles.record: "CCCCCCCC[n+]1csc2ccccc21.F[P-](F)(F)(F)(F)F"
  solubility (mole fraction): "7e-05"
- smiles.record: "CCCC[n+]1csc2ccccc21.F[P-](F)(F)(F)(F)F"
  solubility (mole fraction): 0.000297
